test_details: yeast display, Sf9 membrane polyspecificity reagent, FACS + sequencing; frameworks hold sequencing errors
measurement_type: polyreactivity (PSR sort gate)

Field: example entries. Status: answers known.
seq_text	measurement_type	measured_result
QVQLVESGGGLVQAGGSLRLSCAASGYIFRYNAMGWYRQAPGKERELVAAIRATGGSTYYADSVKGRFTISRDNAKNTVSLQMNSLKPEDTAVYYCNAGGQGRTYRYYYWGQGTQVTVSS	polyreactivity (PSR sort gate)	high polyreactivity
QVQLVESGGGLVQAGGSLRLSCAASGRIFGANAMGWYRQAPGKERELVATITYGGTSTYYADSVKGRFTISRDNGKNTVYLQMNSLKPEDTAVSYCAADGYSVFAAILGEYFDSDYWGQGTQVTVSS	polyreactivity (PSR sort gate)	low polyreactivity
QVQLVESGGGLVQAGGILRLSWAASGRTFRYYAMGWYRQAPGKDREFVAAISWSGGSTYYADSVKGRFTISRDNAKNTVYLQMNSLKPEDTAVFYCAAESIYTWGIRGAYWGQGTQVTVSS	polyreactivity (PSR sort gate)	high polyreactivity
QVQLVESGGGLVQAGGSLRLSCAASGLTFVFYAMGWYRQAPGKERELVAAISSSGGSTNYADSVKGRFTISRDNAKNTVYLQMNSLKPEDTAVYYCNAALLGKQYYSNPNYDYWGQGTQVTVSS	polyreactivity (PSR sort gate)	high polyreactivity
QVQLVESGGGLVQAGGSLRLSCAASGSTCDRYAMGWYRQAPGKERELVAAITDTGGSTYYADSVKGRFTISRDNAKNTVYLQMNSLKPEDTAVFYCAKGYFWSSYVSSRYGSWGQGTQVTVSS	polyreactivity (PSR sort gate)	high polyreactivity
QVQIVESGGGLVQAGGSLRLSCAASGRIFDSYAMGWYRQAPGKERELVAAISQNSGSTYYADSVKGRFTISRDNEKNTVYLQMNSLKPEDTAVYYCAATRKTKRFGYWGQGTQVTVSS	polyreactivity (PSR sort gate)	high polyreactivity
QVQLVESGGGLVQAGGSLRLSCAASGSIFKKYAMGWYRQAPGKERELVAAITRGTYYADSVKGRFTISRDNAKNTVYLQMNSLKPEDTAVYYCNREYWGRGYYRVRGEYDYWGQGTQVTVSS	polyreactivity (PSR sort gate)	low polyreactivity
QVQLVESGGGLVQAGGSLRLSCAASGSNLATYTMGWYRQEPGKERELVAAISFGGSTYYADSVKGRFTISRDNAKNTDYLQMNSLKPEDTAVYYCAVYGDSYWGAYYYSDGYWGQGTQVTVSS	polyreactivity (PSR sort gate)	low polyreactivity
QVQLVESGGGLVQAGGSLRLSCAASGRIFVVNAMGWYRQAPGKERELVAAITRRGGSTYADSVKGRFTISRDNAKNTVYLQMNSLKPEDTAVYYCNAESYSGIFSYKYDYWGQGTQVTVSS	polyreactivity (PSR sort gate)	high polyreactivity
QVQLVESGGGLVPAGGSLRLSCAASGSIFEGNAMGWYRQAPGKERELVAAISTTGGITYYADSVKGRFTISRDNAKNTVYLQMNSLKPEETAVYYCAADPSQPRIDSSNYDYWGQGTQVTVSS	polyreactivity (PSR sort gate)	low polyreactivity

Ask: Provide only the value of recorded polyreactivity (PSR sort gate) for QVQLVESGGGLVQAGGSLRLSCAASGFIFVWYAMGWYRQAPGKERELVAGITASGGSTYYADSVKGRFTISRDNAKNTVYLQMNSLKPEDTAVYYCAADAWPLWLKLTPTSGGYWGQGTQVTVSS
Reply: low polyreactivity

====

test_details: yeast display, Sf9 membrane polyspecificity reagent, FACS + sequencing; frameworks hold sequencing errors
measurement_type: polyreactivity (PSR sort gate)

Worked cases, polyreactivity (PSR sort gate) given:
seq_text	measured_result
QDQLVESGGGLVQAGGSLRLICAASGRTFGSYTMGWYRQAPGKERELVAAITSGGRTNYADSVKGRFTISRDNAKNTVYLQMNSLKPEDTAVYYCAAGWRGGRYRYFAYDYWGQGTQVTVSS	high polyreactivity
QVHLVESGGGLVQAGGSLRLSCAASGITFRTYALGGYRQAPGKERELVAAITRGDSTYYADSVKGRFTISRDNAKNTVYLQMNILKPEDTAVYYCNTETTDFRRYEYWGQGTQVTVSS	low polyreactivity
QVQLVESGGGLVQAGGSLRLSCAASGSIFSYYDMGWYRQAPGKERELVASISSGGSTYYADSVKGRFTISRDNAKNTVYLQMNSLKPEDTAVYYFGAVSRWLYWEDVYWGQGTQVTVSS	low polyreactivity
QVQLVESGGGLVQAGGSLRLSCAASGRIFYYNAMGWYRQAPRKERELVASITGSGGSTYYADSVKGRFTISRDNAKNTVYLQMNSLKPEDSAVYYCAKREYLYRYYYVAKYDYWGQGTQVSVSS	low polyreactivity
QVQLVESGGGLVQAGGSLRLICAASGRIFRVYAMGWYRQSPGKERELVAAISSRGGRTYYADSVKGRFTISRDNAKNTVYLQMKSMIPEDTAVYYCAADGRSSSRTTYRYDYWGQGTQVTVSS	high polyreactivity
QVQLVESGGGLVQAGASLRLSCAASGNIFGLYAMGWYRPAPGKERELVAAISDGVSTNYADSVKGRFTISRDNAKITVYLQMNSLKPEDTAVYYCAADQEGYGNWDSEYDYWGQVTQVTVSS	low polyreactivity
QVQLVESGGGLVQAGGSLRLSCAASVRSFRWYTMGWYRQAPGKERELVATISWRGGSTSYADSVKGRFTISRDNAKNTVYLQMNSLKPEDNAVYYCNAVYLWWAYDYWGQGTQVTVSS	high polyreactivity
QVQLVESGGGLVQAGGSLRLSCAASGSIFYYFALGWYRQAPGTERELVAAISRSGGRTYYADSVKGRFTISRDNAKNPVYLHMNSLKPEDTAFYYCNTDGYYTTAKYGYWGQGTQVTVSS	high polyreactivity
QDQLVESGGGLVQAGGSLRLSCAASGSIFIQYAMGWYRQAPGKERQFVAAITSGGGSTYYADSVKGRFTISRDNAMNTVYLQLNSLKPEDTAVYYCAVDRTRRPALPFVTLDRGYWGQGTQVTVSS	low polyreactivity
QVQLVESGGGLVQAGGSLRLSCAASGFILDNYAMGWYRQAPGKERELVAAISGSGGSTFYADSVKGRFTISRDNAKNTVYLQMNSLKSEDTAVYYCNRDRLLRQYDYWGQGTQVTVSS	high polyreactivity

Ask: Find the measured polyreactivity (PSR sort gate) of QFQLVESGGGLVQAGGSLRLSCAASGSIFVPYAMGWYRQAPGKERELVAAISSSTASTYYADSVKGRFTISRDNAKNTVYLQMNSLKPEDTAVYYCNAEQWDYGVRVAHYDYWGQGTQVTVSS and report it.
Reply: low polyreactivity

====

test_details: yeast display, Sf9 membrane polyspecificity reagent, FACS + sequencing; frameworks hold sequencing errors
measurement_type: polyreactivity (PSR sort gate)

seq_text	polyreactivity (PSR sort gate)
QVQLVESGGGLVQAGGSLRLSCAASGFIFSKNVMGWYRQAPGKERELVARITRSGGTTYYADSVKGRFTISRDNAKNTVYLQMNSLKPEDTAVYYCAARRYGSTSISWYDYWGQGTQVTVSS	high polyreactivity
QVQLVDSGGGLVQAGGSLRLSCAASGSTFKYYAMGWYRQAPGKERELVAAISGRGGRTYYADSVKGRFTISRDHAKNTVYLQMNSLKPEDTAVYYCNAPFLGAHHYGYEYWGQGTQVTVSS	high polyreactivity
QVQLVESGGGLVQAGGSLRLSCAASGSILSYYVMGWYRPAPGKERELVAAITSDGSTNYADSVKGRFTISRDNAKNTVYLQMNSLKPEDTAVYYCAAVIAWYYGVQDVYYLGLYDYWGQGTQVTVSS	low polyreactivity
QVQHVESGGGLVQAGGRLRLSCAASGSIFYSNAIGWYRQAPGKEWELVATITWSGGRTYYADSVKGRFTISRDNAKNTVYLQMNSLKPEDTAVYYCAAVSIYWGQGTQVTVSS	low polyreactivity

Field: next sequence
Ask: Return polyreactivity (PSR sort gate) (reported value) for this sequence: QVQLQESGGGLVQACSSLRLSCAASGTIFYYIMGWYRQAPGKERELVATIDLGGGTNYADSVKGRFTISRDDAKNTVYLQMSSLKPEDTAEYYCAVYLYRLTFFYYWGQGNQVTVSS
Reply: high polyreactivity

====

test_details: yeast display, Sf9 membrane polyspecificity reagent, FACS + sequencing; frameworks hold sequencing errors
measurement_type: polyreactivity (PSR sort gate)

seq_text	polyreactivity (PSR sort gate)
QVQLVESRGGLVQAGGSLRLSCAASGRIFYGYAMGGYRQAPGKERELVAGISKRGGTTRYADSVKGRFTISRDNAKNTVYLQMNSLKPEETAVSSCAAESFGLYASPGEEYWGQGTQVTVSS	high polyreactivity
QVQLVESGGGLVQAGGSLRLSCAASGFIFSWYVMGWYRQAPGKERELVAAISQSGGDTYYADSVKGRFTFSRDNAKNTVYLQMNILKPEDTAVYYCAVGRVGRFYYWGQGTQVTVSS	high polyreactivity
QVQLVESGGGLVQAGGSLRLSCAASGFTFAYYAMGWYRQAPGKEREFVAVITWSGGDTYYADSVKGRFTISRDNAKNTVYLQMNSLKPEDTAVSYCAATYWGTRRIYAYGYWGQGTQVTVSS	high polyreactivity
QVQLVESGGGLVQAGGSLRLSCAGSGSSFSNYAMRGYRQATGKERELVAVITTGASTYYADSLKGRFTISRDNAKNTVYLQLNSLKPEDSAVYACAKGKISRETPGIYWSYSYGYWGQGTQVTVSS	high polyreactivity

Now look at this entry.
Ask: Let me know recorded polyreactivity (PSR sort gate) for QVQLVESGGCLVQAGGSLRLSCAPSGFIFPYYAMGWYRPAPGQERALVAAITSSGGSTYYADSVKGRFTISRDNAKNTVYLQMNSLKPEETAVYYCNKYRRYVDGYEMDYWGQGTQVTVSS , thanks.
Reply: high polyreactivity
